Hello, the source for this data is patent US5760036A, in case you need it.

Consider the following molecules and their measured HIV Protease % Inhibition at 10 μM readings.
- SYSTEM UNDER TEST: HIV protease (Human immunodeficiency virus type 1 group M subtype B, UniProt P04585)
- Construct: and purified protease
- MEASUREMENT NOTES: HIV Protease Assay
- Type: biochemical
- CONDITION: 10 μM inhibitor, 4% DMSO, 450 μM substrate, pH 5.5, 30 minutes at 37° C., RP-HPLC
- Procedure: An HIV protease standard assay was performed in a 60 μl reaction medium containing 50 mM sodium acetate, pH 5.5, 100 μg/ml bovine serum albumen,450 μM substrate (H2 N-Val-Ser-Gln-Asn-(β-naphthyl-alanine)-Pro-Val-Ile-OH), and purified protease. The reaction medium was incubated for 30 minutes at 37° C., quenched by the addition of 140 μl 5% H3 PO4, then analyzed by reverse phase HPLC using UV220 detection. In a typical control assay, 7% of the substrate was hydrolyzed. […]
TEST READOUT: HIV Protease % Inhibition at 10 μM (%)

[[record]]
molecule = "CC(C)(C)OC(=O)N[C@@H](Cc1ccccc1)[C@H](O)CNC[C@@H](O)[C@H](Cc1ccccc1)NC(=O)C1(O)CCc2ccccc21 (single isomer, unassigned; isomer a) [Compound 375]"
result_unit = "%"
experimental_result = 98

[[record]]
molecule = "CC(C)(C)OC(=O)N[C@@H](Cc1ccccc1)[C@H](O)CNC[C@@H](O)[C@H](Cc1ccccc1)NC(=O)OC1c2ccccc2CC1O (stereo partly shown) [Compound 148]"
result_unit = "%"
experimental_result = 88

[[record]]
molecule = "CC(C)(C)OC(=O)N[C@@H](Cc1ccccc1)[C@H](O)CNC[C@@H](O)[C@H](Cc1ccccc1)NC(=O)C(C)(O)C(F)(F)F (single isomer, unassigned; isomer b)"
result_unit = "%"
experimental_result = 89

[[record]]
molecule = "CC(C)(C)OC(=O)N[C@@H](Cc1ccccc1)[C@H](O)CNC[C@@H](O)[C@H](Cc1ccccc1)NC(=O)C(C)(O)c1ccccn1 (single isomer, unassigned; isomer b) [Compound 382]"
result_unit = "%"
experimental_result = 89

[[record]]
molecule = "CC(C)(C)OC(=O)N[C@@H](Cc1ccccc1)[C@H](O)CNC[C@@H](O)[C@H](Cc1ccccc1)NC(=O)C(C)(O)c1ccccn1 (single isomer, unassigned; isomer a) [Compound 381]"
result_unit = "%"
experimental_result = 60

[[record]]
molecule = "COC(=O)NC(C)(C(=O)N[C@@H](Cc1ccccc1)[C@H](O)CNC[C@@H](O)[C@H](Cc1ccccc1)NC(=O)OC(C)(C)C)C(C)(C)C (single isomer, unassigned; isomer a) [Compound 373]"
result_unit = "%"
experimental_result = 85

[[record]]
molecule = "CC(C)(C)OC(=O)N[C@@H](Cc1ccccc1)[C@H](O)CNC[C@@H](O)[C@H](Cc1ccccc1)NC(=O)C1NC(=O)CC1(C)C (single isomer, unassigned) [Compound 266]"
result_unit = "%"
experimental_result = 69

[[record]]
molecule = "CC(C)(C)OC(=O)N[C@@H](Cc1ccccc1)[C@H](O)CNC[C@@H](O)[C@H](Cc1ccccc1)NC(=O)C(O)(CO)C(C)(C)C (single isomer, unassigned; isomer a) [Compound 366]"
result_unit = "%"
experimental_result = 99

[[record]]
molecule = "CC(C)(C)OC(=O)N[C@@H](Cc1ccccc1)[C@H](O)CNC[C@@H](O)[C@H](Cc1ccccc1)NC(=O)C1(O)CCc2ccccc21 (single isomer, unassigned; isomer b) [Compound 376]"
result_unit = "%"
experimental_result = 63

[[record]]
molecule = "CC(C)(C)OC(=O)N[C@@H](Cc1ccccc1)[C@H](O)CNC[C@@H](O)[C@H](Cc1ccccc1)NC(=O)C1NC(=O)OC1(C)C (single isomer, unassigned; isomer a) [Compound 239]"
result_unit = "%"
experimental_result = 37


###

- SYSTEM UNDER TEST: HIV protease (Human immunodeficiency virus type 1 group M subtype B, UniProt P04585)
- Construct: and purified protease
- MEASUREMENT NOTES: HIV Protease Assay
- Assay type: biochemical
- CONDITION: pH 5.5, 10 μM inhibitor, 4% DMSO, 450 μM substrate, pH 5.5, 30 minutes at 37° C., RP-HPLC; read-out: HIV Protease % Inhibition at 10 μM
Consider the following compounds and their measured inhibition at 10 µM readings.
TEST READOUT: inhibition at 10 µM (%)

[[record]]
compound = "CC(C)[C@H](NC(=O)N(C)Cc1ccccn1)C(=O)N[C@@H](Cc1ccccc1)[C@H](O)CNC[C@@H](O)[C@H](Cc1ccccc1)NC(=O)OC(C)(C)C"
system_under_test = "HIV protease (Human immunodeficiency virus type 1 group M subtype B, UniProt P04585)"
result_unit = "%"
experimental_result = 100

[[record]]
compound = "CCC(=O)N[C@H](C(=O)N[C@@H](Cc1ccccc1)[C@H](O)CNC[C@@H](O)[C@H](Cc1ccccc1)NC(=O)OC(C)(C)C)C(C)C (relative stereo)"
system_under_test = "HIV protease (Human immunodeficiency virus type 1 group M subtype B, UniProt P04585)"
result_unit = "%"
experimental_result = 99

[[record]]
compound = "O=C(N[C@@H](Cc1ccccc1)[C@H](O)CNC[C@@H](O)[C@H](Cc1ccccc1)NC(=O)c1ccccc1)c1ccccc1"
system_under_test = "HIV protease (Human immunodeficiency virus type 1 group M subtype B, UniProt P04585)"
result_unit = "%"
experimental_result = 36

[[record]]
compound = "COC(=O)N(C)[C@H](C(=O)N[C@@H](Cc1ccccc1)[C@H](O)CNC[C@@H](O)[C@H](Cc1ccccc1)NC(=O)OC(C)(C)C)C(C)(C)C"
system_under_test = "HIV protease (Human immunodeficiency virus type 1 group M subtype B, UniProt P04585)"
result_unit = "%"
experimental_result = 100

[[record]]
compound = "CCc1ccccc1CC(NC(=O)OC(C)(C)C)C(O)CNCC(O)C(Cc1ccccc1)NC(=O)OC(C)(C)C (stereo not drawn)"
system_under_test = "HIV protease (Human immunodeficiency virus type 1 group M subtype B, UniProt P04585)"
result_unit = "%"
experimental_result = 98


###

- SYSTEM UNDER TEST: HIV protease (Human immunodeficiency virus type 1 group M subtype B)
- Construct: and purified protease
- MEASUREMENT NOTES: HIV Protease Assay
- Format: biochemical
- CONDITION: pH 5.5, 10 μM inhibitor, 4% DMSO, 450 μM substrate, pH 5.5, 30 minutes at 37° C., RP-HPLC; read-out: HIV Protease % Inhibition at 10 μM
Binary call on inhibition at 10 µM: TRUE from 60% upward, FALSE beneath that.

[[record]]
molecule = "CC(C)(C)OC(=O)N[C@@H](Cc1ccccc1)[C@H](O)CNC[C@@H](O)[C@H](Cc1ccccc1)NC(=O)OC1(C)CCCC1O (stereo partly shown)"
label = "TRUE"

[[record]]
molecule = "CC(C)(C)OC(=O)N[C@@H](Cc1ccccc1)C(=O)CN(Cc1ccccc1)CC(O)[C@H](Cc1ccccc1)NC(=O)OC(C)(C)C (stereo partly shown)"
label = "FALSE"

[[record]]
molecule = "CC(C)(C)OC(=O)N[C@@H](Cc1ccccc1)[C@H](O)CNC[C@@H](O)[C@H](Cc1c[nH]c2ccccc12)NC(=O)OCc1ccccc1"
label = "TRUE"

[[record]]
molecule = "CC(C)(C)OC(=O)N[C@@H](Cc1ccccc1)[C@H](O)CNC[C@@H](O)[C@H](Cc1ccccc1)NC(=O)[C@H](CC(N)=O)NC(=O)OCc1ccccc1"
label = "TRUE"

[[record]]
molecule = "COC(=O)N[C@@H](C(=O)N[C@@H](Cc1ccccc1)[C@H](O)CNC[C@@H](O)[C@H](Cc1ccccc1)NC(=O)OC(C)(C)C)C(C)(C)C (relative stereo)"
label = "FALSE"

[[record]]
molecule = "CC(C)(C)OC(=O)N[C@@H](Cc1ccccc1)[C@H](O)CNC[C@@H](O)[C@H](Cc1ccccc1)NC(=O)CC(O)CO (stereo partly shown)"
label = "TRUE"

[[record]]
molecule = "CC(C)(C)OC(=O)N[C@@H](Cc1ccccc1)[C@H](O)CNC[C@@H](O)[C@H](Cc1ccccc1)NC(=O)OC(C)(C)CC#CCc1ccccc1"
label = "TRUE"

[[record]]
molecule = "CC(C)(C)OC(=O)N[C@@H](Cc1ccccc1)[C@H](O)CNC[C@@H](O)[C@H](Cc1ccccc1)NC(=O)NCc1ccccc1 (relative stereo)"
label = "FALSE"

[[record]]
molecule = "COCCOc1ccc(C[C@H](NC(=O)OC(C)(C)CO)[C@H](O)CNC[C@@H](O)[C@H](Cc2ccccc2)NC(=O)OC(C)(C)C)cc1"
label = "TRUE"

[[record]]
molecule = "CC(C)[C@H](NC(=O)OCc1ccccc1)C(=O)N[C@@H](Cc1ccccc1)[C@@H](O)CNC[C@H](O)[C@H](Cc1ccccc1)NC(=O)[C@@H](NC(=O)OCc1ccccc1)C(C)C"
label = "FALSE"

[[record]]
molecule = "CC(C)(C)OC(=O)N[C@@H](Cc1ccccc1)[C@H](O)CNC[C@@H](O)[C@H](Cc1ccccc1)NC(=O)C(OCc1ccccc1)C(C)(C)C (stereo partly shown)"
label = "TRUE"

[[record]]
molecule = "CC(O)COc1ccc(C[C@H](NC(=O)OC(C)(C)C)[C@H](O)CNC[C@@H](O)[C@H](Cc2ccccc2)NC(=O)OC(C)(C)C)cc1 (stereo partly shown)"
label = "TRUE"

[[record]]
molecule = "CC(C)[C@H](NC(=O)OC(C)(C)C)C(=O)N[C@@H](Cc1ccccc1)[C@H](O)CNC[C@@H](O)[C@H](Cc1ccccc1)NC(=O)OC(C)(C)C"
label = "FALSE"

[[record]]
molecule = "CC(C)(C)OC(=O)N[C@@H](Cc1ccccc1)[C@H](O)CNC[C@@H](O)[C@H](Cc1ccccc1)NC(=O)C(O)C(C)(C)C (stereo partly shown)"
label = "TRUE"

[[record]]
molecule = "CC(C)(C)OC(=O)N[C@@H](Cc1ccccc1)[C@H](O)CNC[C@@H](O)[C@H](Cc1ccccc1)NC(=O)[C@@H](NC(=O)OCc1nc2ccccc2s1)C(C)(C)C"
label = "TRUE"

[[record]]
molecule = "CC(C)(C)OC(=O)N[C@@H](Cc1ccccc1)[C@H](O)CNC[C@@H](O)[C@H](Cc1ccccc1)NC(=O)OC1CCCOC1 (stereo partly shown)"
label = "TRUE"

[[record]]
molecule = "COC(=O)N[C@H](C(=O)N[C@@H](Cc1ccc(OCCc2ccccn2)cc1)[C@H](O)CNC[C@@H](O)[C@H](Cc1ccccc1)NC(=O)OC(C)(C)C)C(C)(C)C (relative stereo)"
label = "TRUE"

[[record]]
molecule = "CC(C)[C@H](NC(=O)OCc1ccccc1)C(=O)N[C@@H](Cc1ccccc1)[C@H](O)CNC[C@@H](O)[C@H](Cc1ccccc1)NC(=O)[C@@H](NC(=O)OCc1ccccc1)C(C)C"
label = "TRUE"

[[record]]
molecule = "CC(C)(C)OC(=O)N[C@@H](Cc1ccccc1)C(=O)N[C@@H](Cc1ccccc1)[C@H](O)CNC[C@@H](O)[C@H](Cc1ccccc1)NC(=O)OC(C)(C)C"
label = "FALSE"

[[record]]
molecule = "C[C@H](NC(=O)OCc1ccccc1)C(=O)N[C@@H](Cc1ccccc1)[C@H](O)CNC[C@@H](O)[C@H](Cc1ccccc1)NC(=O)OC(C)(C)C (relative stereo)"
label = "TRUE"

[[record]]
molecule = "CC[C@H](C)[C@H](NC(=O)OC(C)(C)C)[C@H](O)CNC[C@@H](O)[C@@H](NC(=O)OC(C)(C)C)[C@@H](C)CC"
label = "FALSE"

[[record]]
molecule = "CC(C)(C)OC(=O)N[C@@H](Cc1ccccc1)[C@H](O)CNC[C@@H](O)[C@H](Cc1ccccc1)NC(=O)OC(C)(C)CCOCc1ccccc1"
label = "TRUE"

